# assay info: Kinetic solubility of the compound
# Type: physicochemical
# assay setup: read-out: Kinetic_solubility
measured metric: solubility kinetic (µM)

A = CNC(=O)c1c(C(N)=O)nc2n1C1CC(C1)c1ccc(C#CC(C)(C)c3ncc(C)o3)cc1-2
B = Cc1cnc(C(C)(C)C#Cc2ccc3c(c2)-c2nc(C(N)=O)c(C4CC4)n2C2CC3C2)o1
C = Cc1cc([C@@](C)(O)C#Cc2ccc3c(c2)-c2nc(C(N)=O)c(C4CC4)n2CCO3)no1
query: Order the records, beginning with the lowest solubility kinetic and ending with the highest. Return value: ordered labels per request.
result: A, B, C

---

# target of assay: Serine/threonine-protein kinase D1 (Homo sapiens, UniProt Q15139)
# assay info: Inhibition of full length GST-tagged human PRKD1 expressed in Baculovirus expression system using ATP as substrate incubated for 1 to 2 hrs by transcreener ADP assay based fluorescence correlation spectroscopic analysis
pKi: −log10 of the molar value.
measured metric: pKi

query: Please give the measured pKi for this molecule: `Cc1cc([C@](C)(O)C#Cc2ccc3c(c2)-c2nc(C(N)=O)cn2C2CC3C2)no1`
result: 9.05

query: Please give the measured pKi for this molecule: `CCOc1nc2ccc(C#C[C@](C)(O)c3ncc(C)o3)cc2n1-c1ccnc(N)n1`
result: 7.21

query: Please give the measured pKi for this molecule: `NC(=O)c1cn2c(n1)-c1cc(C#CC3CCCC3)ccc1C1CC2C1`
result: 7.36

query: Please give the measured pKi for this molecule: `Cc1cc([C@](C)(O)C#Cc2ccc3c(c2)-c2nc(C(N)=O)cn2CCO3)no1`
result: 8.31

query: Please give the measured pKi for this molecule: `Cc1cc([C@](C)(O)C#Cc2cc3c(cc2F)C2CC(C2)n2cc(C(N)=O)nc2-3)no1`
result: 8.23

I = CCOc1nc2ccc(C#C[C@@](C)(O)c3ncc(C)o3)cc2n1-c1ccnc(N)n1
II = Cc1cc([C@@](C)(O)C#Cc2ccc3c(c2)-c2nc(C(N)=O)cn2CCO3)no1
query: Looking only at measured pKi, which entry is lower, I or II ? Write the label of whichever entry you select.
result: II
(II: 7.85, I: 8.44)

---

# target of assay: Serine/threonine-protein kinase D1 (Homo sapiens, UniProt Q15139)
# assay info: Inhibition of full length GST-tagged human PRKD1 expressed in Baculovirus expression system using ATP as substrate incubated for 1 to 2 hrs by transcreener ADP assay based fluorescence correlation spectroscopic analysis
pKi: −log10 of the molar value.
measured metric: pKi

A = Cc1cnc([C@@](C)(O)C#Cc2ccc3c(c2)-c2nc(C(N)=O)cn2C2CC3C2)o1
B = Cc1cc([C@@](C)(O)C#Cc2ccc3c(c2)-c2nc(C(N)=O)cn2C2CC3C2)no1
C = NC(=O)c1cn2c(n1)-c1cc(C#CC3(O)CCCC3)ccc1C1CC2C1
query: Order the records so the highest pKi appears first and the lowest last. Return value: ordered labels per request.
result: A, C, B

---

# assay info: Lipophilicity, log D of the compound at pH 7.4
# Assay type: physicochemical
# assay setup: buffer
measured metric: logD

Study these solved cases before continuing.
query: Please give the measured logD for this compound: `CNC(=O)c1c(C(N)=O)nc2n1C1CC(C1)c1ccc(C#CC(C)(C)c3ncc(C)o3)cc1-2`
result: 3.7

query: Please give the measured logD for this compound: `Cc1cnc(C(C)(C)C#Cc2ccc3c(c2)-c2nc(C(N)=O)c(C4CC4)n2C2CC3C2)o1`
result: 4.4

A = Cc1cc([C@](C)(O)C#Cc2cc3c(cc2F)C2CC(C2)n2c-3nc(C(N)=O)c2C2CC2)no1
B = Cc1cc([C@@](C)(O)C#Cc2ccc3c(c2)-c2nc(C(N)=O)c(C4CC4)n2CCO3)no1
query: Looking only at measured logD, which entry is lower, A or B ? Write the label of whichever entry you select.
result: B
(B: 2, A: 3.7)

---

# target of assay: Mitogen-activated protein kinase kinase kinase 14 (Homo sapiens, UniProt Q99558)
# Sequence (Q99558 whole entry): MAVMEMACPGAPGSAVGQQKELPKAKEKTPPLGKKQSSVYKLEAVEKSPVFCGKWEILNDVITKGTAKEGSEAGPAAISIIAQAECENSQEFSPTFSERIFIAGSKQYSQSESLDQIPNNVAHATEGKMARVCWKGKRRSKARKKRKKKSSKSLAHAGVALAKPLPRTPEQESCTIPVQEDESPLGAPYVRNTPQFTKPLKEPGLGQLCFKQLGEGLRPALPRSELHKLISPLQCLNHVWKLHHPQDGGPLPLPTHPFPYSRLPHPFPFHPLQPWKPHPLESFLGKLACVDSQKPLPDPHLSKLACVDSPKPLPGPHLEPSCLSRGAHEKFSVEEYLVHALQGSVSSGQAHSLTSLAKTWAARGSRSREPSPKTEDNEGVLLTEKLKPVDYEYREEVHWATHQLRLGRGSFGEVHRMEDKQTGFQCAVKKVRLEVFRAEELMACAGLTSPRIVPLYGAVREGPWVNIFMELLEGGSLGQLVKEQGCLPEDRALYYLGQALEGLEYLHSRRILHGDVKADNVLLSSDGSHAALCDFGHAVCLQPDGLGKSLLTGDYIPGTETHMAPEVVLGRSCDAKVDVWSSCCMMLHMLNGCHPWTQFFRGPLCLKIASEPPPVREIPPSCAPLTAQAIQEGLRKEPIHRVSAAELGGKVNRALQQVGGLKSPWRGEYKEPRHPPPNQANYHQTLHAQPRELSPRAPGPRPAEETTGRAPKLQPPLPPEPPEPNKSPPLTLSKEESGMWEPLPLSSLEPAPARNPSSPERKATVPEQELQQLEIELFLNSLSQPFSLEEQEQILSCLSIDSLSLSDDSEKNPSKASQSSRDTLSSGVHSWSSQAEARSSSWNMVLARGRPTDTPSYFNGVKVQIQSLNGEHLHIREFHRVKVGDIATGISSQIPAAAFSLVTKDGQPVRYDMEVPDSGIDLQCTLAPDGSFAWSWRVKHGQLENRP
# assay info: Inhibition of NIK (unknown origin) using ATP as substrate by transcreener ADP assay based fluorescence correlation spectroscopic analysis
pKi: −log10 of the molar value.
measured metric: pKi

query: Checklist item: pKi tested on Mitogen-activated protein kinase kinase kinase 14 (Homo sapiens, UniProt Q99558), entry `CCOc1nc2ccc(C#C[C@](C)(O)c3ncc(C)o3)cc2n1-c1ccnc(N)n1` , value?
result: 6.20

P = NC(=O)c1cn2c(n1)-c1cc(C#CC3(O)CCCC3)ccc1C1CC2C1
Q = Cc1cc([C@](C)(O)C#Cc2ccc3c(c2)-c2nc(C(N)=O)cn2CCO3)no1
query: When their pKi values are compared, which is larger, P or Q ? Write the label of whichever entry you select.
result: Q
(Q: 8.51, P: 8.00)

---

# target of assay: Serine/threonine-protein kinase D1 (Homo sapiens, UniProt Q15139)
# Sequence (Q15139 whole entry): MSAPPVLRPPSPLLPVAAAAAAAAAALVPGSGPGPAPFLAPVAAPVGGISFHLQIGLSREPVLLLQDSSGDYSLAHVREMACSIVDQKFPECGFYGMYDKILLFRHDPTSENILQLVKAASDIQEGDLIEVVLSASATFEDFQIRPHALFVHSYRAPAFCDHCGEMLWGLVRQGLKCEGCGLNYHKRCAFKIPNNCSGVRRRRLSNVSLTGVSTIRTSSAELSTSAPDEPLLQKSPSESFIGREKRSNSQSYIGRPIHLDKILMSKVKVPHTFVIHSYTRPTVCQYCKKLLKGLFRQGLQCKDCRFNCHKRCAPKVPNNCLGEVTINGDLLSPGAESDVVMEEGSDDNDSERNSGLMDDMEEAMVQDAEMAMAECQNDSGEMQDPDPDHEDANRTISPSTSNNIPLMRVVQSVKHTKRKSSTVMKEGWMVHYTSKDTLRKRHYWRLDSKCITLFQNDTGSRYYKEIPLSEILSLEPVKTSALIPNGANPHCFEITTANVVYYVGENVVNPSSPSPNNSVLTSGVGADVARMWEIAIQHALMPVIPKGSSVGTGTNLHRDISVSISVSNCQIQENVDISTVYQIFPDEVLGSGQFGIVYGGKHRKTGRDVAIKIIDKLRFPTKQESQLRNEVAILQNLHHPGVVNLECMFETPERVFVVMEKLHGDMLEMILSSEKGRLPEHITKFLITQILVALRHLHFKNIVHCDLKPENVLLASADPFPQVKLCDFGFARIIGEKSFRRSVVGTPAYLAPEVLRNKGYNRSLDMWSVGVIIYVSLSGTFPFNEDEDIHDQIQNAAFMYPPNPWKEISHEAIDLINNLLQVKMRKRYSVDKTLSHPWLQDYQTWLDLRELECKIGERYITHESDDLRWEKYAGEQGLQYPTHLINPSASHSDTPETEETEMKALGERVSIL
# assay info: Inhibition of full length GST-tagged human PRKD1 expressed in Baculovirus expression system using ATP as substrate incubated for 1 to 2 hrs by transcreener ADP assay based fluorescence correlation spectroscopic analysis
measured metric: Ki

Study these solved cases before continuing.
query: Please give the measured Ki for this compound: `Cc1cnc(C(C)(C)C#Cc2ccc3c(c2)-c2nc(C(N)=O)c(C4CC4)n2C2CC3C2)o1`
result: < 0.2 nM

query: Please give the measured Ki for this compound: `Cc1cc([C@](C)(O)C#Cc2cc3c(cc2F)C2CC(C2)n2c-3nc(C(N)=O)c2C2CC2)no1`
result: < 0.2 nM

In the following, a different compound is considered.
query: Please give the measured Ki for this compound: `Cc1cnc([C@](C)(O)C#Cc2ccc3c(c2)-c2nc(C(N)=O)cn2C2CC3C2)o1`
result: < 0.2 nM

---

# target of assay: Mitogen-activated protein kinase kinase kinase 14 (Homo sapiens, UniProt Q99558)
# assay info: Inhibition of NIK (unknown origin) using ATP as substrate by transcreener ADP assay based fluorescence correlation spectroscopic analysis
measured metric: Ki (nM)

query: Checklist item: Ki tested on Mitogen-activated protein kinase kinase kinase 14 (Homo sapiens, UniProt Q99558), entry `Cc1cc([C@@](C)(O)C#Cc2ccc3c(c2)-c2nc(C(N)=O)cn2C2CC3C2)no1` , value?
result: 582

query: Checklist item: Ki tested on Mitogen-activated protein kinase kinase kinase 14 (Homo sapiens, UniProt Q99558), entry `Cc1cc([C@](C)(O)C#Cc2ccc3c(c2)-c2nc(C(N)=O)cn2C2CC3C2)no1` , value?
result: 0.8

query: Checklist item: Ki tested on Mitogen-activated protein kinase kinase kinase 14 (Homo sapiens, UniProt Q99558), entry `Cc1cc([C@](C)(O)C#Cc2cc3c(cc2F)C2CC(C2)n2cc(C(N)=O)nc2-3)no1` , value?
result: 1

P = CNC(=O)c1c(C(N)=O)nc2n1C1CC(C1)c1cc(F)c(C#C[C@@](C)(O)c3cc(C)on3)cc1-2
Q = CCOc1nc2ccc(C#C[C@@](C)(O)c3ncc(C)o3)cc2n1-c1ccnc(N)n1
query: When their Ki values are compared, which is larger, P or Q ? Write the label of whichever entry you select.
result: P
